experiment_notes: endothelial E-selectin expression blockers – imaging, HUVEC, immunofluorescence, MLSMR starter and 10KST1 sets, primary screen (AID 487);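 for inhibition: signal is fraction of cell area covered by stained E-selectin grains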
details: HUVEC TNFalpha-induced E-selectin immunofluorescence imaging, at 2 µM; stronger effect = higher value
Active and inactive are the calls of the source.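 Rule for the calls: active = visually confirmed hit in the image check and inhibition above 20%; inconclusive = visually confirmed hit but inhibition not above 20%; inactive = no visual hit in the image check.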
Field: inhibition. Provide a value for each of the molecules that follow.

Fill in reported inhibition for this entry: CCN(C(=O)c1cc2cc3ccc(C)cc3nc2o1)c1ccc(OC)cc1
-11% (inactive)

Fill in reported inhibition for this entry: CCOC(=O)C1C(=O)OC(C)(C)C1C(C)C(=O)c1ccc(OC)cc1 (stereo unspecified)
3.9% (inactive)

Fill in reported inhibition for this entry: O=C1NC(c2ccco2)Nc2ccccc21 (stereo unspecified)
-84.8% (inactive)

Fill in reported inhibition for this entry: CCC(=O)Oc1ccc2c(C)cc(=O)oc2c1C
-42.2% (inactive)

Fill in reported inhibition for this entry: COCCNC(=O)C(c1cccs1)N(C(=O)Cn1nnc2ccccc21)c1ccccc1 (stereo unspecified)
24.6% (inactive)

Fill in reported inhibition for this entry: COC(=O)C(C#N)C(=C1C(=O)CC(C)(C)CC1=O)c1ccc(O)cc1 (stereo unspecified)
15% (inactive)

====

Field: nuclei count. Provide a value for each of the compounds that follow.
experiment_notes: endothelial E-selectin expression blockers – imaging, HUVEC, immunofluorescence, MLSMR starter and 10KST1 sets, primary screen (AID 487);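 for nuclei count: 100% = median nuclei count of all wells on the same plate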
details: HUVEC TNFalpha-induced E-selectin immunofluorescence imaging, at 2 µM; measured here: cell number, toxicity
Give the value, in units of %, as a plain number.

Fill in reported nuclei count for this entry: COCCn1c(=O)[nH]c2cc(C(=O)N3CCN(c4ccccc4OC)CC3)ccc2c1=O
117

Fill in reported nuclei count for this entry: CCN(CC)Cc1nc2c(c(=O)[nH]1)C1(CCCCC1)Cc1ccccc1-2
101

Fill in reported nuclei count for this entry: c1ccc(Cn2nnc3c(N4CCC5(CC4)OCCO5)ncnc32)cc1
144

Fill in reported nuclei count for this entry: O=C(O)CC(C(=O)Nc1cccc(C(F)(F)F)c1)C1CCCO1 (stereo not given)
92.1

Fill in reported nuclei count for this entry: C/C(=C\C(=O)c1ccc(F)cc1)Nc1ccc(N2CCOCC2)cc1
99.6

====

experiment_notes: endothelial E-selectin expression blockers – imaging, HUVEC, immunofluorescence, MLSMR starter and 10KST1 sets, primary screen (AID 487);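 for inhibition: signal is fraction of cell area covered by stained E-selectin grains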
details: HUVEC TNFalpha-induced E-selectin immunofluorescence imaging, at 2 µM; stronger effect = higher value
Please use TRUE whenever inhibition is not below -20%, and FALSE whenever it is.

Identify whether the reported inhibition of the following compound is -20% or greater: O=C(Nc1nnc(SCC(=O)N2CCCCC2)s1)C1CCCCC1
FALSE

Identify whether the reported inhibition of the following compound is -20% or greater: C=CCSc1nnc(Cc2c(C)[nH]c3ccccc23)o1
TRUE

Identify whether the reported inhibition of the following compound is -20% or greater: Cn1c(=N)c(S(=O)(=O)c2ccccc2)cc2c(=O)n3ccccc3nc21
FALSE

Identify whether the reported inhibition of the following compound is -20% or greater: CCOC(=O)CSc1nnc(-c2ccc(S(=O)(=O)N3CCOCC3)cc2)n1-c1ccccc1
TRUE

Identify whether the reported inhibition of the following compound is -20% or greater: COc1ccccc1NC(=O)NC(N)=O
FALSE

Identify whether the reported inhibition of the following compound is -20% or greater: CCCCCCn1c(CN2CCN(Cc3ccccc3)CC2)nc2c1c(=O)n(C)c(=O)n2C
TRUE

Identify whether the reported inhibition of the following compound is -20% or greater: CCNc1ccc2c(Cl)cc(=O)oc2c1
TRUE

Identify whether the reported inhibition of the following compound is -20% or greater: CC(=O)N1CCc2cc(S(=O)(=O)NCCC(=O)Nc3cc(C)cc(C)c3)ccc21
TRUE

Identify whether the reported inhibition of the following compound is -20% or greater: C=CCN(CC=C)C(=O)Nc1cc(Cl)ccc1OC
FALSE

Identify whether the reported inhibition of the following compound is -20% or greater: Cc1nn(-c2nc3ccccc3[nH]2)c(N)c1-c1ccccc1
FALSE

====

experiment_notes: reduction of polyQ htt aggregates in cells – imaging, exon1htt(103Q)mCFP cells, high-content imaging, primary screen (AID 483);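 note: compound exposure lasted 3 days before fixation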
details: exon1htt(103Q)mCFP cell line, aggregate imaging, at 2 µM; stronger effect = higher value
Field: inhibition of aggregation. Provide a value for each of the molecules that follow.
Give the value, in units of %, as a plain number.

Fill in reported inhibition of aggregation for this entry: CC(C)(C)NC(=O)COC(=O)c1ccc(O)cc1
-18.1

Fill in reported inhibition of aggregation for this entry: CNC(=O)c1ccc2nc(NC(C)=O)sc2c1
4.1

Fill in reported inhibition of aggregation for this entry: Cc1cccc(NC(=O)c2oc3c(c2C)C(=O)CC(C)(C)C3)n1
-4.5

Fill in reported inhibition of aggregation for this entry: O=C(O)c1ccc2noc(-c3ccccc3)c2c1
16.9

Fill in reported inhibition of aggregation for this entry: C=CCn1cc(C(=O)NCCOC)c(=O)c2cc(S(=O)(=O)N(CC)CC)ccc21
7.1

Fill in reported inhibition of aggregation for this entry: Cc1cc(C)n2nc(SCC(=O)N(C)c3ccccc3)nc2n1
-25.2

====

experiment_notes: endothelial E-selectin expression blockers – imaging, HUVEC, immunofluorescence, MLSMR starter and 10KST1 sets, primary screen (AID 487);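 for inhibition: signal is fraction of cell area covered by stained E-selectin grains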
details: HUVEC TNFalpha-induced E-selectin immunofluorescence imaging, at 2 µM; stronger effect = higher value
Field: inhibition. Provide a value for each of the molecules that follow.
Give the value, in units of %, as a plain number.

Fill in reported inhibition for this entry: Cc1ccc(CN2C(=O)CCC2C(=O)NCCCN2CCCC(C)C2)cc1 (stereo not drawn)
-43.5

Fill in reported inhibition for this entry: Cn1c(=O)c2c(nc(N3CCN(c4ccccc4)CC3)n2CCCc2ccccc2)n(C)c1=O
20.4

Fill in reported inhibition for this entry: CCC1C(=O)n2nc(-c3ccccc3)cc2N=C1C (stereo not drawn)
-4.1

Fill in reported inhibition for this entry: CCOc1ccccc1C1CC(c2ccc(Br)cc2)Nc2nc(N)nn21 (stereo not drawn)
-14.1

Fill in reported inhibition for this entry: CCC(CCC(=O)Nc1cccc(C(=O)O)c1)C(=O)O (stereo not drawn)
49.6

Fill in reported inhibition for this entry: O=C(O)c1ccc(C2SCC(=O)N2Cc2ccccc2)cc1 (stereo not drawn)
7.3

Fill in reported inhibition for this entry: CC(C(=O)NC(=O)NC1CCCCC1)N1CCN(c2ccccn2)CC1 (stereo not drawn)
0.2

Fill in reported inhibition for this entry: Cc1ccc2c(c1)CCCN2C(=O)C1CCCO1 (stereo not drawn)
-84.4

Fill in reported inhibition for this entry: CC(C)(C)c1nc(CN2CCOCC2)ccc1O
-58.3

Fill in reported inhibition for this entry: Cc1cc(Br)ccc1NC(=O)CCN1C(=O)c2ccncc2C1=O
39.2

Fill in reported inhibition for this entry: Cc1nn(C(=O)c2ccccc2)c2c1C(=O)CC(C)(C)C2
-114

Fill in reported inhibition for this entry: COCCN1C=C(C(=O)OC)C(c2cc3c(cc2Br)OCO3)C(C(=O)OC)=C1
48.4

Fill in reported inhibition for this entry: O=C(Nc1ccccc1-c1nc2ccccc2o1)c1ccc2c(c1)OCCO2
48.6

Fill in reported inhibition for this entry: CCCC(CCC)n1[nH]c(=O)c2c(C)cc(C)nc21
-29.5

Fill in reported inhibition for this entry: O=S(=O)(c1ccc2c(c1)OCCO2)N1CCC(n2nnc3cc(F)ccc32)CC1
-24.6

Fill in reported inhibition for this entry: CCOC(=O)C1CCN(CC(=O)Nc2c(C(=O)OC)[nH]c3ccc(Cl)cc23)CC1
-29.3

Fill in reported inhibition for this entry: Cc1ccc(-c2cc(C(F)F)nc(N3CCC(C)CC3)n2)cc1
-81.9

Fill in reported inhibition for this entry: Cc1ccc2[nH]c3c(=O)n(CCCN4CCN(C)CC4)cnc3c2c1
-36.8

Fill in reported inhibition for this entry: CC1N=C2c3ccccc3N=C(SCc3cc(=O)n4cc(Cl)ccc4n3)N2C1=O (stereo not drawn)
32.4

Fill in reported inhibition for this entry: CC(C)C(=O)Nc1cccc(NC(=O)c2cccnc2)c1
-167

Fill in reported inhibition for this entry: Cc1cc2ncn(S(=O)(=O)c3ccc(S(=O)(=O)N4CCOCC4)cc3)c2cc1C
-98.8

Fill in reported inhibition for this entry: CC1(C)CC(=O)C(C=Nc2ccncc2)=C(O)C1
-42.3

Fill in reported inhibition for this entry: Cc1ccc2c(c1)-c1c(cnn1CC(=O)Nc1ccccc1N1CCN(C)CC1)CO2
-3.4

====

Field: inhibition of aggregation. Provide a value for each of the compounds that follow.
experiment_notes: reduction of polyQ htt aggregates in cells – imaging, exon1htt(103Q)mCFP cells, high-content imaging, primary screen (AID 483);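 note: compound exposure lasted 3 days before fixation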
details: exon1htt(103Q)mCFP cell line, aggregate imaging, at 2 µM; stronger effect = higher value
Give the value, in units of %, as a plain number.

Fill in reported inhibition of aggregation for this entry: O=C(NCc1ccccc1)C1CCN(S(=O)(=O)c2cccc3cccnc23)CC1
19

Fill in reported inhibition of aggregation for this entry: CCc1n[nH]c2c1C(=O)CC(C)(C)C2
4.8

Fill in reported inhibition of aggregation for this entry: O=C1NC(=O)C(CC(=O)N(c2ccccc2)C2(C(=O)NC3CCCC3)CCCCC2)N1 (stereo unspecified)
25.6

Fill in reported inhibition of aggregation for this entry: O=C(c1cccc2c1C(=O)N(Cc1cccnc1)C2)N1CCN(c2ccccc2)CC1
-5.7

Fill in reported inhibition of aggregation for this entry: O=C(c1ccc2snnc2c1)N1CCOCC1
-11.2

Fill in reported inhibition of aggregation for this entry: Cc1nonc1NC(=O)c1ccccc1Br
28.1

Fill in reported inhibition of aggregation for this entry: COc1ccc(C(=O)NCc2nnc(SC)n2C2CCCCC2)cc1
-1.1

Fill in reported inhibition of aggregation for this entry: Cc1cnc(NC(=O)CSc2nc3ccccc3c(=O)[nH]2)s1
-0.5

Fill in reported inhibition of aggregation for this entry: CCn1c(CCNC(=O)c2cccs2)nnc1SCC(=O)c1ccc(OC)cc1
-4.7

Fill in reported inhibition of aggregation for this entry: Cc1cc(C)cc(OCCCC(=O)O)c1
12.3

Fill in reported inhibition of aggregation for this entry: COc1ccc(/C=N/n2c(=O)[nH]c3c([nH]c4ccc(C)cc43)c2=O)cc1CN1CCOCC1
16.8
